Let's look at some molecules and their measured pEC50.
Test system: Splenocytes
Protocol text: Splenic cell proliferation assay (anti-IgM stimulated)
Format: cell-based
Condition parameters: Splenocyte; CD1 mouse splenocytes, 1 h pre-treatment, 2.5 ug/ml anti-IgM F(ab')2 for 72 h, Cell Titer-Glo; read-out: EC50 (inhibition of splenic cell proliferation)
API: returns pEC50 as number; meaning -log10 of concentration in mol/L.

Known results for molecules:
# pEC50 lookup, item "C=C(F)C(=O)N1CC[C@@H](n2nc(-c3ccc(Oc4cc(F)cc(OCc5cnc(C)nc5)c4)cc3)c3c(N)ncnc32)C1" 8.24

Next molecule up: "C=CC(=O)N1CCC[C@@H](n2nc(-c3ccc(Oc4cc(F)cc(OCc5cnc(C)nc5)c4)cc3)c3c(N)ncnc32)C1" 8.51

Queued: "CC#CC(=O)N[C@H]1CC[C@@H](n2nc(-c3ccc(Oc4cc(F)cc(OCc5cnc(C)nc5)c4)cc3)c3c(N)ncnc32)CC1" 9.00

Others:
Endpoint output: pEC50 of "C=C(C)C(=O)N1CCC[C@@H](n2nc(-c3ccc(Oc4cc(F)cc(OCc5cnc(C)nc5)c4)cc3)c3c(N)ncnc32)C1" . Value? 7.31

For "C=CC(=O)N1CC(Cn2nc(-c3ccc(Oc4cc(F)cc(OCc5cnc(C)nc5)c4)cc3)c3c(N)ncnc32)C1" then? 8.31

How about this molecule: "C#CC(=O)N1CCC[C@@H]1Cn1nc(-c2ccc(Oc3cc(F)cc(OCc4cnc(C)nc4)c3)cc2)c2c(N)ncnc21" 7.31

Same question for "C=CC(=O)N1CCC[C@@H]1Cn1nc(-c2ccc(Oc3cc(F)cc(OCc4cnc(C)nc4)c3)cc2)c2c(N)ncnc21" please. 8.60

Further, for "C=C(F)C(=O)N[C@H]1C[C@@H](n2nc(-c3ccc(Oc4cc(F)cc(OCc5cnc(C)nc5)c4)cc3)c3c(N)ncnc32)C1" ? 9.00

* * *

Tested on: Splenocytes
Protocol text: Splenic cell proliferation assay (anti-IgM stimulated)
Assay type: cell-based
Condition parameters: Splenocyte; CD1 mouse splenocytes, 1 h pre-treatment, 2.5 ug/ml anti-IgM F(ab')2 for 72 h, Cell Titer-Glo; read-out: EC50 (inhibition of splenic cell proliferation)
Attribute measured: pEC50
Remember, pEC50 is on a log scale: it is -log10 of the molar concentration.

These solved cases illustrate the format of a correct answer.
Would you mind telling me what pEC50 value was observed for CC#CC(=O)N1CC(Cn2nc(-c3ccc(Oc4cc(F)cc(OCc5cnc(C)nc5)c4)cc3)c3c(N)ncnc32)C1 [Compound 24] ? 7.97

Now consider Cc1ncc(COc2cc(F)cc(Oc3ccc(-c4nn(C[C@H]5CCCN5C#N)c5ncnc(N)c45)cc3)c2)cn1 [Compound 1] . 7.91

Request: C=CC(=O)N(C)[C@H]1C[C@@H](n2nc(-c3ccc(Oc4cc(F)cc(OCc5cnc(C)nc5)c4)cc3)c3c(N)ncnc32)C1 [Compound 31] 8.85

Follow-up item: C=CC(=O)N[C@H]1CC[C@@H](n2nc(-c3ccc(Oc4cc(F)cc(OCc5cnc(C)nc5)c4)cc3)c3c(N)ncnc32)CC1 [Compound 29] 9.00

Turning to the following compound.
Need pEC50, item CC#CC(=O)N1CCC(n2nc(-c3ccc(Oc4cc(F)cc(OCc5cnc(C)nc5)c4)cc3)c3c(N)ncnc32)CC1 [Compound 26] 8.34
